# system-tested: human PAH with the R408W mutation (Homo sapiens, UniProt P00439, R408W)
# Construct: expressed in transfected cells
# protocol: Cell Based Phenylalanine Flux Assay
# test-conditions: A375 cells expressing human R408W PAH; 24 hrs with compound; 13C-Tyrosine by LC-MS; average where tested multiple times; read-out: AC50
assay-readout: AC50

Guide cases for AC50, answers given:
O=C(c1cnn2c(Br)cccc12)N1CCc2[nH]cnc2[C@@H]1c1nc2ccccc2[nH]1 (single isomer, unassigned); > 5 µM
O=C(c1cnco1)N1CC2(CC2)c2[nH]cnc2C1c1nc2ccccc2s1 (stereo not drawn); 1 to 5 µM
N#Cc1ccn2ncc(C(=O)N3CCc4[nH]cnc4C3c3nc4ccc(Cl)cc4[nH]3)c2c1 (stereo not drawn); > 5 µM
O=C(CCc1nccs1)N1CCc2nc[nH]c2C1c1nc2cc(Cl)ccc2s1 (stereo not drawn); 1 to 5 µM
Cn1cc(-c2ncc(C(=O)N3CCc4[nH]cnc4[C@H]3c3nc4ccccc4[nH]3)s2)cn1; > 5 µM
NC(=O)c1ncoc1C(=O)N1CCc2[nH]cnc2C1c1nc2ccccc2s1 (stereo not drawn); > 5 µM
COCc1ncc(C(=O)N2CCc3[nH]cnc3C2c2nc3c(F)cccc3s2)o1 (stereo not drawn); 1 to 5 µM
O=C(Cc1nncs1)N1CCc2[nH]cnc2C1c1nc2ccc(F)cc2s1 (stereo not drawn); > 5 µM

Let's switch to this compound now.
Asked: Using the record for COCc1ncc(C(=O)N2CCc3[nH]cnc3C2c2nc3ccccc3s2)o1 (stereo not drawn) , state its measured AC50.
Given back: 1 to 5 µM

###

# system-tested: human PAH with the R408W mutation (Homo sapiens, UniProt P00439, R408W)
# Construct: expressed in transfected cells
# protocol: Cell Based Phenylalanine Flux Assay
# test-conditions: A375 cells expressing human R408W PAH; 24 hrs compound incubation; 13C-Tyrosine by LC-MS; average where tested multiple times; read-out: AC50
assay-readout: AC50

Asked: Using the record for Cc1c(C(=O)N2CCc3[nH]cnc3[C@H]2c2nc3c(F)cccc3s2)cnn1CC(F)(F)F [Example 1919] , state its measured AC50.
Given back: 0.5 to 1 µM

Asked: Using the record for O=C(c1cnn2cc(F)ccc12)N1CCc2[nH]cnc2[C@H]1c1nc2ccccc2s1 [Example 1039] , state its measured AC50.
Given back: 0.5 to 1 µM

###

Each entry below lists one item and its recorded AC50 value.
# system-tested: human PAH with the R408W mutation (Homo sapiens, UniProt P00439, R408W)
# Construct: expressed in transfected cells
# Sequence (P00439 1-452 R408W): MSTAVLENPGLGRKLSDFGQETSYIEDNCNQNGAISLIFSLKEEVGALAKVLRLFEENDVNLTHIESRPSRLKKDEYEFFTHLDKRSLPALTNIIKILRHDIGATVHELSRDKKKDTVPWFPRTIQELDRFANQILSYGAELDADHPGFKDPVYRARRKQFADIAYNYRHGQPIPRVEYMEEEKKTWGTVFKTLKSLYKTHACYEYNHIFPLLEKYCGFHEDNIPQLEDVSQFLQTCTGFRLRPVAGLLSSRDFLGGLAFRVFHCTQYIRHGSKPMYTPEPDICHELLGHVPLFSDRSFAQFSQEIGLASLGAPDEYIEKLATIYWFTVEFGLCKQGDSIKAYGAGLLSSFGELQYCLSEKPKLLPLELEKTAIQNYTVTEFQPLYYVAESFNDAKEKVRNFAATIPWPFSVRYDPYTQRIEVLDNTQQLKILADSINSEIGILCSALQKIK
# protocol: Cell Based Phenylalanine Flux Assay
# test-conditions: A375 cells expressing human R408W PAH; 24 hrs with compound; 13C-Tyrosine by LC-MS; average where tested multiple times; read-out: AC50

O=C(Cc1nc(C(F)(F)F)cs1)N1CCc2[nH]cnc2C1c1nc2ccc(Cl)cc2[nH]1 (stereo not drawn); 1 to 5 µM

Asked: Using the record for O=C(c1cnn2c(Br)cccc12)N1CCc2[nH]cnc2C1c1nc2ccc(Cl)cc2[nH]1 (stereo not drawn) , state its measured AC50.
Given back: > 5 µM

Asked: Using the record for COCc1ccc2c(C(=O)N3CC4(CC4)c4[nH]cnc4C3c3nc4ccccc4s3)cnn2c1 (stereo not drawn) , state its measured AC50.
Given back: > 5 µM

Asked: Using the record for CC(C)(O)c1cc(C(=O)N2CCc3[nH]cnc3C2c2nc3ccccc3s2)no1 (stereo not drawn) , state its measured AC50.
Given back: 1 to 5 µM

Asked: Using the record for CC1CN(C(=O)c2cnc(N3CCOCC3)o2)C(c2nc3ccccc3s2)c2nc[nH]c21 (stereo not drawn) , state its measured AC50.
Given back: 1 to 5 µM

Asked: Using the record for O=C(CCc1nccs1)N1CCc2[nH]cnc2C1c1nc2cc(F)ccc2s1 (stereo not drawn) , state its measured AC50.
Given back: 1 to 5 µM

Asked: Using the record for O=C(c1cc2ccccn2n1)N1CCc2nc[nH]c2C1c1nc2ccccc2s1 (stereo not drawn) , state its measured AC50.
Given back: 1 to 5 µM

Asked: Using the record for Cc1cc(C(=O)N2CCc3[nH]cnc3C2c2nc3c(F)cccc3s2)n(-c2ccc(F)cc2)n1 (stereo not drawn) , state its measured AC50.
Given back: 1 to 5 µM

Asked: Using the record for Cn1ncc(C(=O)N2CCc3[nH]cnc3C2c2nc3ccccc3s2)n1 (stereo not drawn) , state its measured AC50.
Given back: > 5 µM

Asked: Using the record for Cn1nc(CC#N)nc1C(=O)N1CCc2[nH]cnc2C1c1nc2ccccc2s1 (stereo not drawn) , state its measured AC50.
Given back: > 5 µM

Asked: Using the record for COCCc1ncc(C(=O)N2CCc3[nH]cnc3C2c2nc3ccccc3s2)o1 (stereo not drawn) , state its measured AC50.
Given back: > 5 µM

###

Each entry below lists one item and its recorded AC50 value.
# system-tested: human PAH with the R408W mutation (Homo sapiens, UniProt P00439, R408W)
# Construct: expressed in transfected cells
# protocol: Cell Based Phenylalanine Flux Assay
# test-conditions: A375 cells expressing human R408W PAH; 24 hrs compound incubation; 13C-Tyrosine by LC-MS; average where tested multiple times; read-out: AC50

Guide cases for AC50, answers given:
O=C(c1cnco1)N1CCc2[nH]cnc2[C@H]1c1nc2cccc(F)c2s1 [Example 1247]; 1 to 5 µM
O=C(CC1CCCC1)N1CCc2[nH]cnc2[C@H]1c1nc2ccccc2[nH]1 [Example 929]; < 0.5 µM
CC(C)(O)c1nc(C#N)c(C(=O)N2CCc3[nH]cnc3[C@@H]2c2nc3ccccc3s2)o1 [Example 1698]; > 5 µM
Cc1nn(C)cc1-c1ncc(C(=O)N2CCc3[nH]cnc3[C@H]2c2nc3ccccc3s2)o1 [Example 1381]; < 0.5 µM
CC(C)(O)c1ncc(C(=O)N2CCc3[nH]cnc3[C@H]2c2nc3ccccc3s2)s1 [Example 1435]; < 0.5 µM

Asked: Using the record for O=C(CCC1CC1)N1CCc2[nH]cnc2[C@@H]1c1nc2ccc(F)cc2s1 [Example 1094] , state its measured AC50.
Given back: > 5 µM

Asked: Using the record for Cc1ccc2nc([C@@H]3c4nc[nH]c4CCN3C(=O)c3cnco3)sc2c1 [Example 2175] , state its measured AC50.
Given back: 0.5 to 1 µM

Asked: Using the record for O=C(c1ocnc1-c1ccccc1)N1CCc2[nH]cnc2[C@@H]1c1nc2c(F)cccc2s1 [Example 2178] , state its measured AC50.
Given back: > 5 µM

Asked: Using the record for O=C(c1cnc(-c2ccc(F)cc2)o1)N1CCc2[nH]cnc2[C@H]1c1nc2ccccc2s1 [Example 2117] , state its measured AC50.
Given back: < 0.5 µM

###

# system-tested: human PAH with the R408W mutation (Homo sapiens, UniProt P00439, R408W)
# Construct: expressed in transfected cells
# Sequence (P00439 1-452 R408W): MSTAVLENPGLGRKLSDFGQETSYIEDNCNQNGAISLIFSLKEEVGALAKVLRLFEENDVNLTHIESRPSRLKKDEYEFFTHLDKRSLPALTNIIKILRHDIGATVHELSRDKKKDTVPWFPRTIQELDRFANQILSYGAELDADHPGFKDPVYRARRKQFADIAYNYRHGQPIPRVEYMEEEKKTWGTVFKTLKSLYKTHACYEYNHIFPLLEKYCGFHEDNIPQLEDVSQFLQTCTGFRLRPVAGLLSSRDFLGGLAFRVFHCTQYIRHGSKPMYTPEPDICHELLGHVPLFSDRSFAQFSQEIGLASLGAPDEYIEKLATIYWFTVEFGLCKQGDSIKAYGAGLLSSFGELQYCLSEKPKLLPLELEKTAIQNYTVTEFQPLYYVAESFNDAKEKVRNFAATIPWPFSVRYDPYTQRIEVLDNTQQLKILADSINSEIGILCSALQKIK
# protocol: Cell Based Phenylalanine Flux Assay
# test-conditions: A375 cells expressing human R408W PAH; 24 hrs with compound; 13C-Tyrosine by LC-MS; average where tested multiple times; read-out: AC50
assay-readout: AC50

Guide cases for AC50, answers given:
COC(=O)N1CC(C(=O)N2CCc3[nH]cnc3C2c2nc3ccccc3s2)C1 (stereo not shown); 1 to 5 µM
CC(C)(O)Cn1cc(C(=O)N2CCc3[nH]cnc3C2c2nc3c(F)cccc3s2)cn1 (stereo not shown); 1 to 5 µM
Cn1nc(Br)nc1C(=O)N1CCc2[nH]cnc2C1c1nc2c(F)cccc2s1 (stereo not shown); 1 to 5 µM
O=C(c1ncn2ccccc12)N1CCc2[nH]cnc2C1c1nc2ccc(F)cc2s1 (stereo not shown); 1 to 5 µM
Cn1ncc(C(=O)N2CCc3[nH]cnc3C2c2nc3c(F)cccc3s2)c1C(F)(F)F (stereo not shown); 1 to 5 µM

Asked: Using the record for Cn1nc(C(C)(C)O)cc1C(=O)N1CCc2[nH]cnc2C1c1nc2c(F)cccc2s1 (stereo not shown) , state its measured AC50.
Given back: > 5 µM

Asked: Using the record for O=C(c1cnn2cccc(F)c12)N1CCc2[nH]cnc2C1c1nc2ccccc2s1 (stereo not shown) , state its measured AC50.
Given back: 1 to 5 µM

Asked: Using the record for Cc1ncoc1C(=O)N1CC(C)(C)c2[nH]cnc2C1c1nc2ccccc2s1 (stereo not shown) , state its measured AC50.
Given back: > 5 µM

Asked: Using the record for O=C(c1ccsn1)N1CCc2[nH]cnc2C1c1nc2ccccc2s1 (stereo not shown) , state its measured AC50.
Given back: > 5 µM

Asked: Using the record for O=C(c1cnco1)N1CCCc2[nH]cnc2C1c1nc2ccccc2s1 (stereo not shown) , state its measured AC50.
Given back: 1 to 5 µM
